tested on: SK-MEL-2 melanoma; test: NCI tumour cell line growth inhibition, 48 h
This listing pairs molecules with measured TGI.
readout-name: TGI (µM)

CON=C1C[C@]2(C[C@@H]3C[C@@H](C/C=C(\C)C[C@@H](C)/C=C/C=C4\CO[C@@H]5[C@H](O)C(C)=C[C@@H](C(=O)O3)[C@]45O)O2)O[C@H](/C(C)=C/C(C)C)[C@H]1C | 32.5
COC(=O)CC1C2(C)C3=C(C)C(c4ccoc4)CC3OC2C2OC(=O)C3(C)C=CC(=O)C1(C)C23 (stereo not given) | 3.58
C/C(=N\Nc1nc2ccccc2o1)c1ncccn1 | 13.6
CC(O)CC(=O)CO[C@H]1[C@H](O)[C@@H](O)[C@@H](O)[C@@H]2NC(=O)c3c(cc4c(c3O)OCO4)[C@H]21 (stereo not given in full) | 0.261
O=C(NNC(=S)Nc1ccc(Cl)cc1)C12CC3CC(CC(C3)C1)C2 | 38.2
